The reported numbers originate from patent US20230141177A1.

molecular target: AβO in the low molecular weight (LMW) fraction of pooled soluble human AD brain extract (~8 kDa to ~70 kDa) (human) (UniProt P05067); assay: SPR, immobilized antibody, brain extract fraction at 100 µg/ml injected; Study 3
The binders listed here are annotated with their Binding to LMW (BRU).
Please respond with the number in BRU and leave the unit unwritten.

The examples below pair each entry with its known result.
>>> measured_result("Clone 14 (affinity matured VH with parental Vk, human IgG4 S241P / kappa) (antibody, V domains shown) VH: QVQLVQSGAEVKKPGASVKMSCKASGYSFTSYWINWVKQRPGQGLEWIGDVHPGRGVSTYNAKFKSRATLTLDTSISTAYMELSSLRSEDTAVYYCAKSDASGYWFFDVWGQGTTVTVSS VL: DVLMTQSPLSLPVTLGQPASISCRSSQSIVHSNGNTYLEWYQQRPGQSPRLLIYKVSNRFSGVPDRFSGSGSGTDFTLKISRVEAEDVGVYYCFQGSHVPFTFGQGTKLEIKR")
6.34
>>> measured_result("Clone 5 (affinity matured VH with parental Vk, human IgG4 S241P / kappa) (antibody, V domains shown) VH: QVQLVQSGAEVKKPGASVKMSCKASGYSFTSYWINWVKQRPGQGLEWIGDVHPGRGVSTYNAKFKSRATLTLDTSISTAYMELSSLRSEDTAVYYCARGALSPYWFFDVWGQGTTVTVSS VL: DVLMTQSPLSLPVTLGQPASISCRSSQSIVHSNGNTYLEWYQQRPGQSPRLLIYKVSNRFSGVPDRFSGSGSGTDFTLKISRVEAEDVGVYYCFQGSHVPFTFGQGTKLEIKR")
9.45
>>> measured_result("Clone 4 (affinity matured VH with parental Vk, human IgG4 S241P / kappa) (antibody, V domains shown) VH: QVQLVQSGAEVKKPGASVKMSCKASGYSFTSYWINWVKQRPGQGLEWIGDVHPGRGVSTYNAKFKSRATLTLDTSISTAYMELSSLRSEDTAVYYCARVSPTGYWFFDVWGQGTTVTVSS VL: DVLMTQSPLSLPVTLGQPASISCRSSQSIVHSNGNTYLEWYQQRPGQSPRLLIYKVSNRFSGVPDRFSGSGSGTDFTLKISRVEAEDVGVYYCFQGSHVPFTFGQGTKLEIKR")
10.1

Field: next binder
parental antibody, PMN310 humanized antibody variant VH2/Vk5 (human IgG4 S241P / kappa) (antibody, V domains shown) VH: QVQLVQSGAEVKKPGASVKMSCKASGYSFTSYWINWVKQRPGQGLEWIGDVHPGRGVSTYNAKFKSRATLTLDTSISTAYMELSSLRSEDTAVYYCSRSHGNTYWFFDVWGQGTTVTVSS VL: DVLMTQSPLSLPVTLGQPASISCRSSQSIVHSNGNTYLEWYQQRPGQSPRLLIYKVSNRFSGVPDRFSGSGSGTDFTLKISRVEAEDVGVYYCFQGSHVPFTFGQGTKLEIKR yielded Binding to LMW (BRU) of 7.6
